Target: T1, RBM45 RRM3 (Homo sapiens, UniProt Q8IUH3 370-476)
T1 sequence: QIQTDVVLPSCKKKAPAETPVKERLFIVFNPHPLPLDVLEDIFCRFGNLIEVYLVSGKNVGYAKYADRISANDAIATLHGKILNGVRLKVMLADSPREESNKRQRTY
Experiment: fluorescence polarization; also printed as 33.6; FP: 100 nM FAM-RNA/ssDNA, 10 mM Tris-HCl pH 7.5, 200 mM NaCl, 1 mM DTT, 1 mM EDTA, 5% glycerol, 25 °C, 30 min
Conditions: protein: recombinant; tags: C-terminal His-tag; label: 5'-FAM
OBSERVATION_TYPE: Kd (µM)

> print(dat)
           binder  observation.type  unit.label  test.value
1  GGACCG (ssRNA)                Kd          µM        32.6

From: paper PMC11402289
